Assay: pKa value was reported
Format: physicochemical
Kindly state pKa for each of the entries shown.
Numbers only.

# map each compound to its pKa
1. C[C@H](O)c1nccc(N2C[C@@H](C)N(c3ccnc([C@@H](C)O)n3)[C@@H](C)C2)n1
2. Cc1nc(C)nc(N2C[C@@H](C)N(c3ccnc([C@@H](C)O)n3)[C@@H](C)C2)n1 (stereo in doubt; 16)

6.8
6.2

----------
Target: Sorbitol dehydrogenase (Homo sapiens)
Sequence (Q00796 whole entry): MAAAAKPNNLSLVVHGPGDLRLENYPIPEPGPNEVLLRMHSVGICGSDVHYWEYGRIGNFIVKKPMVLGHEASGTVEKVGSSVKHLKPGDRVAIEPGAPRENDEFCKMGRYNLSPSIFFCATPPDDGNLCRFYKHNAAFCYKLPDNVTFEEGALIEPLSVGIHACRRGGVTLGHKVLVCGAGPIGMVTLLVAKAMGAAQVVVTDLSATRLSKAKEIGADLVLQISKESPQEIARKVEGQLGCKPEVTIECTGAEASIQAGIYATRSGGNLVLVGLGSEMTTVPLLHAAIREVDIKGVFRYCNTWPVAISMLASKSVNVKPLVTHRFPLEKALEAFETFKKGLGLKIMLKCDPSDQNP
Test: Concentration required for 50% in vitro activity against human SDH (sorbitol dehydrogenase)
Readout: pIC50
Give bare numbers, as −log10 of the molar value.

In one line, give reported pIC50 of the entry C[C@H](O)c1nccc(N2C[C@@H](C)N(c3ccnc([C@@H](C)O)n3)[C@@H](C)C2)n1 . 8.00

----------
Biological target: Sorbitol dehydrogenase (Homo sapiens, UniProt Q00796)
Sequence (Q00796 whole entry): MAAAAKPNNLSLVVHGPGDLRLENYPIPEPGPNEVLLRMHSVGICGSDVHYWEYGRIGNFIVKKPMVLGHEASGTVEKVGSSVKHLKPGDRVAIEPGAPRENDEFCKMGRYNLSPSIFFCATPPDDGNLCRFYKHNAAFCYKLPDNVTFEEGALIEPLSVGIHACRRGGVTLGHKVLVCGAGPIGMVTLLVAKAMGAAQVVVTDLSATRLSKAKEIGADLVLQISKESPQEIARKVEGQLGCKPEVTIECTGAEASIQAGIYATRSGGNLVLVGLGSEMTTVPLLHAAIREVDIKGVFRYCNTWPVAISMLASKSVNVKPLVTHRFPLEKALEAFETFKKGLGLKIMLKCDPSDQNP
Test: Concentration required for 50% for in vitro activity against human SDH (sorbitol dehydrogenase)
Readout: IC50 (nM)
Give bare numbers, in nM.

Look over these answered cases.
Provide measured IC50 value, entry: Cc1nc(C)nc(N2C[C@@H](C)N(c3ccnc([C@@H](C)O)n3)[C@@H](C)C2)n1 (stereo in doubt; 16a) 16

Give the reported IC50 for this compound. Cc1ncnc(N2C[C@@H](C)N(c3ccnc([C@@H](C)O)n3)[C@@H](C)C2)n1 7

Indicate its recorded IC50; the compound in question is Cc1nc(C)nc(N2C[C@@H](C)N(c3ccnc([C@@H](C)O)n3)[C@@H](C)C2)n1 (stereo in doubt; 16) 5

From here, focus on the item given below.
Provide IC50 value for the following compound: Cc1nc(-c2ccccc2)nc(N2C[C@@H](C)N(c3ccnc([C@@H](C)O)n3)[C@@H](C)C2)n1 43

----------
Dear all, this message contains IC50 results, target or system UniProtKB P27867.
Sequence (P27867 whole entry): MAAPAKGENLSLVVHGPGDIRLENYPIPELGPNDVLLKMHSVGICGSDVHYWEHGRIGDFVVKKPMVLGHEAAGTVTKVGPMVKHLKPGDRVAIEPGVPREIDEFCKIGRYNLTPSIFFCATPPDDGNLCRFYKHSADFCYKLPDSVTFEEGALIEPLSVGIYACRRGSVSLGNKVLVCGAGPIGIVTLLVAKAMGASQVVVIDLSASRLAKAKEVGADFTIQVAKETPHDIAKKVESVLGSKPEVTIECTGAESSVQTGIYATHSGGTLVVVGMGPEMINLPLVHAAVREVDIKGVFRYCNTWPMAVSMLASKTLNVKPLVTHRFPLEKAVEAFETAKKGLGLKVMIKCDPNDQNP
The answer should read as a number with its unit following.

Fill in IC50 for record Cc1nc(-c2ccccc2)nc(N2C[C@@H](C)N(c3ccnc([C@@H](C)O)n3)[C@@H](C)C2)n1 0.039 µM

Provide reported IC50 for each item, in the same order as listed.
1. Cc1nc(C)nc(N2C[C@@H](C)N(c3ccnc([C@@H](C)O)n3)[C@@H](C)C2)n1 (stereo in doubt; 16a)
2. C[C@H](O)c1nccc(N2C[C@@H](C)N(c3ccnc([C@@H](C)O)n3)[C@@H](C)C2)n1

0.009 µM
0.011 µM

----------
Task for the reader: assign each of the following molecules its reported IC50.
Molecular target: Sorbitol dehydrogenase (Homo sapiens)
Sequence (Q00796 whole entry): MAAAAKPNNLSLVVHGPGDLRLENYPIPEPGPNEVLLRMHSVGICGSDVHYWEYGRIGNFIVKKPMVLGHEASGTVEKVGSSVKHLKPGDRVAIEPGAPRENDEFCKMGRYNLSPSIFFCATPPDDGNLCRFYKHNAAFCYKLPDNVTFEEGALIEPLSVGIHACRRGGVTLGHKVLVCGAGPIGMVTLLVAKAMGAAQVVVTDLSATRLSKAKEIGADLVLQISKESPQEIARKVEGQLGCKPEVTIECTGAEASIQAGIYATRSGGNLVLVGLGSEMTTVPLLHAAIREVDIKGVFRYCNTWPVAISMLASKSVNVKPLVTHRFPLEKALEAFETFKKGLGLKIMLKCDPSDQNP
Test: Concentration required for 50% for in vitro activity against human SDH (sorbitol dehydrogenase)
For clarity, give the value followed by its unit.

For every record below, what is its IC50?
1. C[C@@H]1CN(c2ccnc(N3CCN(C)CC3)n2)C[C@H](C)N1c1ccnc([C@@H](C)O)n1
2. C[C@@H]1CN(c2ncnc(-c3ccccc3)n2)C[C@H](C)N1c1ccnc([C@@H](C)O)n1
3. Cc1cn(-c2nccc(N3C[C@@H](C)N(c4ccnc([C@@H](C)O)n4)[C@@H](C)C3)n2)c(C)n1

["4 nM", "7 nM", "4 nM"]

Identify IC50 associated with the molecule Cc1cn(-c2nccc(N3C[C@@H](C)N(c4ccnc([C@@H](C)O)n4)[C@@H](C)C3)n2)cn1 13 nM

Data provenance is ChEMBL document CHEMBL1135820.
